Reference source for all entries: patent US20230348426A1

# assay target: human FPR1 (Homo sapiens (Human), UniProt P21462)
# Sequence (P21462 whole entry): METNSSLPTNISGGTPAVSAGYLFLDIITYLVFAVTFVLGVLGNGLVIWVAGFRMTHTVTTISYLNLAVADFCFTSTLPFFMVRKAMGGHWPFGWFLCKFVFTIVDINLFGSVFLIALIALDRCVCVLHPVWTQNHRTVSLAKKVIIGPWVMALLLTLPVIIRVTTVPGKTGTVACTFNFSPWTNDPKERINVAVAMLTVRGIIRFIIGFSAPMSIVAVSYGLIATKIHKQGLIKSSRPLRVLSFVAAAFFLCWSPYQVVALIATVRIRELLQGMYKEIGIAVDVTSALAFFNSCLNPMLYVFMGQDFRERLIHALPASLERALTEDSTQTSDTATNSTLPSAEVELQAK
# measurement description: FPR1 cyclic adenosine monophosphate (cAMP) assay
# conditions used: CHO cells overexpressing human FPR1; forskolin 10 µM; inhibition of cAMP production; read-out: hFPR1 cAMP EC50
pEC50: −log10 of the molar value.
recorded endpoint: pEC50

compound | pEC50
COc1cc(N2C[C@@H]3C[C@H]2CN3C)nc(N2C(=O)[C@@H](NC(=O)c3ccc(OC(F)F)cc3)[C@H](c3c(F)cc(OC)cc3F)[C@H]2C)c1 | 6.54
COc1cc(F)c([C@@H]2CN(c3nccc(N4CCN(C)CC4)c3C(F)(F)F)C(=O)[C@H]2NC(=O)c2ccc(OC(F)F)cc2)c(F)c1 | 5.24
COc1cc(F)c([C@@H]2CN(c3c(C)ccn(CCO)c3=O)C(=O)[C@H]2NC(=O)c2ccc(OC(F)(F)F)cc2)c(F)c1 | 8.62

a = COc1cc(F)c([C@H]2[C@H](NC(=O)c3ccc(Cl)cc3)C(=O)N(c3nccn(CC(F)F)c3=O)[C@@H]2C)c(F)c1
b = COc1cc(F)c([C@@H]2CN(c3nccc(OC4CCOC4)c3C(F)(F)F)C(=O)[C@H]2NC(=O)c2ccc(Cl)cc2)c(F)c1 (stereo partly drawn) [Example 709]
Which item exceeds the other in pEC50, a or b ? Give the label of your selection. b

====

# assay target: human FPR2 (Homo sapiens (Human), UniProt P25090)
# Sequence (P25090 whole entry): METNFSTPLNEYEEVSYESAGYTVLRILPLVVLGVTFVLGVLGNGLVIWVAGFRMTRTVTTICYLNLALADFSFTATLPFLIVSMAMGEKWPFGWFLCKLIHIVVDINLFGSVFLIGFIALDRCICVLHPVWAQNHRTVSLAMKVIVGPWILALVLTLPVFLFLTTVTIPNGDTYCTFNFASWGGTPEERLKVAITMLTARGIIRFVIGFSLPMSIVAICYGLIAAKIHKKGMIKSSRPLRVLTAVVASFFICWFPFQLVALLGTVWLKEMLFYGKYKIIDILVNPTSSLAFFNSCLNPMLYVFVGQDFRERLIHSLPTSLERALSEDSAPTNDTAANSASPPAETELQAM
# measurement description: FPR2 cyclic adenosine monophosphate (cAMP) assay
# conditions used: CHO cells overexpressing human FPR2; forskolin 5 µM; inhibition of cAMP production; read-out: hFPR2 cAMP2 EC50
pEC50: −log10 of the molar value.
recorded endpoint: pEC50

Answered examples (3):
compound | assay target | pEC50
COc1cc(C)nc(N2C[C@@H](c3c(F)cc(OC)cc3F)[C@H](NC(=O)c3ccc(OC(F)F)cc3)C2=O)c1 | human FPR2 (Homo sapiens (Human), UniProt P25090) | 8.16
COc1cc(F)c([C@@H]2CN(c3nccc(N4CCN(S(C)(=O)=O)CC4)c3C(F)(F)F)C(=O)[C@H]2NC(=O)c2ccc(Cl)cc2)c(F)c1 | human FPR2 (Homo sapiens (Human), UniProt P25090) | 8.21
COc1cc(F)c([C@@H]2CN(c3c(C)ccn(C4CCS(=O)(=O)C4)c3=O)C(=O)[C@H]2NC(=O)c2ccc(OC(F)(F)F)cc2)c(F)c1 (stereo partly drawn) | human FPR2 (Homo sapiens (Human), UniProt P25090) | 8.07

A = COc1cc(C2CCN(C)CC2)nc(N2C(=O)[C@@H](NC(=O)c3ccc(OC(F)F)cc3)[C@H](c3c(F)cc(OC)cc3F)[C@@H]2C)c1
B = COc1cc(F)c([C@@H]2CN(c3c(C)ccn(C(CO)C(F)(F)F)c3=O)C(=O)[C@H]2NC(=O)c2ccc(OC(F)F)cc2)c(F)c1 (stereo partly drawn) [Example 706]
C = COc1ccc([C@@H]2CN(c3ccnn(CCC(F)(F)F)c3=O)C(=O)[C@H]2NC(=O)c2ccc(Cl)cc2)cc1
Thanks in advance: please rank these 3 entries by pEC50, highest to lowest. Use the labels to give the ranking in the order requested. A, C, B
(A: 8.89, C: 8.24, B: 8.03)
